Recorded values, source patent US20050112075A1.

# Growth of follicle (mm), Treated values compiled below
# System: Human hair follicles in growth phase (anagen)
# measurement.description: Human hair follicle growth assay
# Type: cell-based
# conditions.used: dose 10 μM; dose-dependence study
# Protocol: Human hair Follicle Growth Assay: Human hair follicles in growth phase (anagen) were isolated from face-lift tissue (obtained from plastic surgeons) under dissecting scope using a scalpel and watchmakers forceps. The skin was sliced into thin strips exposing 2-3 rows of follicles that could readily be dissected. […] The length of hair follicle was assessed using an image analysis software system. […]
The answer is to be given in mm; state only the numeric part.

[
  {
    "compound": "CCCCC[C@H](O)/C=C/[C@H]1C(=O)C[C@H](O)[C@@H]1C/C=C\\CCCC(=O)O [PGD2, prostaglandin D2]",
    "recorded.metric": "Growth of follicle (mm), Treated",
    "numeric.value": 0.98
  },
  {
    "compound": "CCCCC[C@H](O)/C=C/[C@H]1C(=O)C=C[C@@H]1C/C=C\\CCCC(=O)O",
    "recorded.metric": "Growth of follicle (mm), Treated",
    "numeric.value": 0.50
  }
]

Query string: Item: CCCCC/C=C/C=C1/C(=O)C=C[C@@H]1C/C=C\CCCC(=O)O Test system: Human hair follicles in growth phase (anagen) Read-out: Growth of follicle (mm), Treated Value: ?
Result string: 0.08

Query string: Item: CCCCC[C@H](O)C/C=C1/C(=O)C=C[C@@H]1C/C=C\CCCC(=O)O Test system: Human hair follicles in growth phase (anagen) Read-out: Growth of follicle (mm), Treated Value: ?
Result string: 0.32

* * *

# Tested on: Human hair follicles in growth phase (anagen)
# measurement.description: Human hair follicle growth assay
# Assay type: cell-based
# conditions.used: dose 1 μM; dose-dependence study
recorded.metric: % Reduction of human hair follicle growth (%)
The answer is to be given in %; state only the numeric part.

[
  {
    "compound": "CCCCC[C@H](O)/C=C/[C@H]1C(=O)C=C[C@@H]1C/C=C\\CCCC(=O)O [PGJ2]",
    "numeric.value": 9.5
  },
  {
    "compound": "CCCCC[C@H](O)C/C=C1/C(=O)C=C[C@@H]1C/C=C\\CCCC(=O)O [Δ^12-PGJ2]",
    "numeric.value": 0.7
  },
  {
    "compound": "CCCCC[C@H](O)/C=C/[C@H]1C(=O)C[C@H](O)[C@@H]1C/C=C\\CCCC(=O)O [PGD2, prostaglandin D2]",
    "numeric.value": 4.4
  }
]

Read the next record carefully.
Query string: May I ask what % Reduction of human hair follicle growth has been recorded for CCCCC/C=C/C=C1/C(=O)C=C[C@@H]1C/C=C\CCCC(=O)O [15-Deoxy-Δ^12,14-PGJ2] ?
Result string: 0
